// provenance: PubChem BioAssay (NCI)

# Test system: SF-539 CNS
# Assay notes: NCI tumour cell line growth inhibition, 48 h
Value kind: TGI (µM)
Give the value, in units of µM, as a plain number.

# annotated cases, reported TGI shown
>>> df
                                   compound  measurement
0  CN(C)C(=O)[C@H](O)[C@H](Cc1ccccc1)NC(=O)c1cc2cc(Cl)ccc2[nH]1         43.3
1  C=C1CCC(CC[C@@H]2CC[C@]3(OC2)O[C@@]2(O)CC[C@]3(C)OC2(C)C)C(C)(C)[C@H]1C/C=C1/C(=O)OC[C@@H]1O (stereo not given in full)         9.18
2  CC(CO)(CO)NCCCCn1ccc2c1C(=O)c1c(c(O)c3ccccc3c1O)C2=O         47.1
3  COc1cccc2c(=O)c3c(sc12)c(N1CCNCC1)nc1ccccc13         3.21
4  C=C(Cl)C(C)(Cl)CCC(Br)C(C)(C)Cl (stereo not given)         71.7
5  CC(C)(Cl)C(Br)CCC(=CCCl)CBr (mixture of isomers)         3.96
6  CN(C)CCN1C(=O)c2ccc3c4c(ccc(c24)C1=O)C(=O)N(CCN=C=S)C3=O        0.212

Shift focus to the following entry.
Enquiry: Suppose we examine the compound `COc1ccc(C(=O)COc2ccc(/C=C3\COc4ccc(OC)cc4C3=O)cc2)cc1` ; what TGI value has been reported?
Return: 65.6

====

# Tested on: M14 melanoma
# Assay notes: NCI tumour cell line growth inhibition, 48 h
Value kind: TGI

# annotated cases, reported TGI shown
In [3]: df
Out[3]:
                                   compound  value_kind  measurement
0  CCOC(=O)C1C2CCC1CC(=NNc1ccc([N+](=O)[O-])cc1[N+](=O)[O-])C2 (centres undefined)         TGI      > 50 µM
1  O=C1CSC(c2ccc(Cl)cc2Cl)N1c1ccc(F)cc1 (centres undefined)         TGI      28.8 µM
2  COC(=O)C1CCCN1C(=O)C(Cc1cn(S(=O)(=O)c2ccc(C)cc2)cn1)NC(=O)OC(C)(C)C (centres undefined)         TGI     > 100 µM
3       S=C(Nc1ccc2c(c1)oc1ccccc12)c1cccnc1         TGI     > 100 µM
4   CCOc1ccc(/C=C2/C(=O)N=C(NC(C)=O)N2C)cc1         TGI     > 100 µM
5  C[C@]12CC[C@@H]3c4cc(OCC(F)(F)F)c(O)cc4/C(=N/O)C[C@H]3[C@@H]1CC[C@@H]2O         TGI      16.9 µM

Enquiry: Suppose we examine the compound Nc1ccn(C2CCC(CO)O2)c(=O)n1 (centres undefined) ; what TGI value has been reported?
Return: > 1000 µM

Enquiry: Suppose we examine the compound `COc1cc(C(=O)c2cc(C)c3[nH]c4ccc(C)cc4c3c2C)cc(OC)c1OC` ; what TGI value has been reported?
Return: > 100 µM

Enquiry: Suppose we examine the compound C1CCC([PH+](C2CCCCC2)C2CCCCC2[PH+](C2CCCCC2)C2CCCCC2)CC1.O=C(C1[CH-]CCCC1)C1CCCC[N-]1.[Au] (centres undefined) ; what TGI value has been reported?
Return: 1.4 µM

====

# Tested on: SW-620 colon
# Assay notes: NCI tumour cell line growth inhibition, 48 h
Catalogue of GI50 readings, one per entry.

# annotated cases, reported GI50 shown
>>> print(df.to_string())
                                   molecule  value_kind  measurement
0  CC(C)C[C@H](NC(=O)/C=C/Cn1ccc2ccccc2c1=O)B(O)O        GI50      3.55 µM
1               O=c1cccc(C#CC#CC2=CCCCC2)o1        GI50       3.4 µM
2           COc1cccc(C#Cc2ccccc2C#CCCCCO)c1        GI50      17.5 µM

Enquiry: Suppose we examine the molecule `COc1ccc(-c2nn(-c3ccc(NC(=O)Nc4cc(C(F)(F)F)cc(C(F)(F)F)c4)cc3)cc2-c2ccncc2)cc1Cl` ; what GI50 value has been reported?
Return: 2.99 µM

Enquiry: Suppose we examine the molecule `Cc1ccc2[nH]c(O)c(N=Nc3ccc(S(N)(=O)=O)cc3)c2c1` ; what GI50 value has been reported?
Return: 10.2 µM

Enquiry: Suppose we examine the molecule C#Cc1c(I)n(C2OC(CO[Si](C)(C)C(C)(C)C)C3OC(C)(C)OC32)c(=O)[nH]c1=O (configuration not stated) ; what GI50 value has been reported?
Return: 2.36 µM

Enquiry: Suppose we examine the molecule `COc1ccc(/C=C/C(=O)C(CC2CCC2)C(=O)/C=C/c2ccc(OC)c(OC)c2)cc1OC` ; what GI50 value has been reported?
Return: 1.55 µM

====

Catalogue of TGI readings, one per entry.
# Tested on: A498 renal
# Assay notes: NCI tumour cell line growth inhibition, 48 h
Give the value, in units of µM, as a plain number.

# annotated cases, reported TGI shown
Molecule	Measurement
COc1cccc2c(=O)c3c(sc12)c(N1CCNCC1)nc1ccccc13	3.14
COC1C=COC2(C)Oc3c(C)c(O)c4c(O)c(c(C5SCCS5)c(O)c4c3C2=O)NC(=O)C(C)=C/C=C\C(C)C2OC(C)(C)OC(C2C)C(C)C(OC(C)=O)C1C (configuration not stated)	29.3

Shift focus to the following entry.
Enquiry: API: value(readout=TGI, system=A498 renal) for record `CC1=C[C@H]2c3c(c(O)c(O)c4oc(-c5ccccc5)cc(=O)c34)[C@H](c3cc(O)c(O)c4oc(-c5ccccc5)cc(=O)c34)[C@H]2C(C)(C)C1`
Return: 3.72

====

# System: MDA-MB-435
Value kind: GI50

>>> df
                                   compound  system_name  measurement
0  O=c1c2ccccc2c(=O)c2c1[nH]c1c(-c3ccccc3)c(-c3ccccc3)c(=O)c12   MDA-MB-435      3.24 µM

Enquiry: Suppose we examine the compound `COc1ccc(C(=O)COc2ccc(/C=C3\COc4ccc(OC)cc4C3=O)cc2)cc1` ; what GI50 value has been reported?
Return: 6.46 µM

====

# Test system: SK-OV-3 ovarian
# Assay notes: NCI tumour cell line growth inhibition, 48 h; in the data active = GI50 below about 0.43 µM; inactive = the rest
Just give me one of these, please: yes (1) (active), no (0) (inactive)

See these solved cases before continuing.
                    structure_smiles_string  class_label
0  O=C(/C=C\c1ccc(NCc2ccc(C(=O)O)cc2)cc1)CCl       no (0)
1  CCOc1cc(C(C)(C)C)ccc1C1=N[C@@](C)(c2ccc(Cl)cc2)[C@@](C)(c2ccc(Cl)cc2)N1C(=O)N1CCN(CCCS(C)(=O)=O)CC1       no (0)
2  COc1cc(/C=C/c2cc(/C=C/c3ccc(O)c(OC)c3)n(C(=O)Nc3ccc(C)cc3C)n2)ccc1O      yes (1)

Enquiry: Check the results log: what was the call for `O=S(=O)(Nc1cc(Sc2cccc3cccnc23)c(O)c2ccccc12)c1ccccc1` ?
Return: no (0)

====

# Tested on: CAKI-1 renal
# Assay notes: NCI tumour cell line growth inhibition, 48 h
Catalogue of TGI readings, one per entry.

# annotated cases, reported TGI shown
                                   compound  measurement
0  Cn1c(COC(=O)Nc2ccccc2)c(COC(=O)Nc2ccccc2)c2ccc3cc(Cl)c(Cl)cc3c21      3.09 µM
1  CC1=CC(C/C(C)=C/COc2ccc3ccc(=O)oc3c2)OC1=O (centres undefined)     > 100 µM
2              Nc1nc(Cl)cc(NCC2(CO)CCCC2)n1     > 100 µM
3              NNC(=O)CSc1nc2ccccc2c(=O)n1N     > 100 µM
4                 CCCCN=C(c1ccccc1)N1CCOCC1     > 100 µM

Enquiry: Suppose we examine the compound `C=CCc1ccc(Oc2cc(CC=C)c3c(c2O)O[C@@H](CO)[C@H]3c2ccc(O)c(-c3cc(CC=C)ccc3O)c2)cc1` ; what TGI value has been reported?
Return: > 100 µM

Enquiry: Suppose we examine the compound `CC(C)(C[C@H]1CN(S(=O)(=O)c2cccc(C(F)(F)F)c2)c2cc(-c3cc(F)cc(OC(F)F)c3)ccc2O1)C(=O)O` ; what TGI value has been reported?
Return: 24.4 µM

Enquiry: Suppose we examine the compound `COc1ccc(-c2nn(-c3ccc(NC(=O)Nc4cc(C(F)(F)F)cc(C(F)(F)F)c4)cc3)cc2-c2ccncc2)cc1Cl` ; what TGI value has been reported?
Return: > 100 µM

Enquiry: Suppose we examine the compound `Cc1cc(C(C)(C)CC(C)(C)C)ccc1OCCOCC[N+](C)(C)Cc1ccccc1` ; what TGI value has been reported?
Return: 39 µM
